# IC50 annotations
Biological target: NLRP3 inflammasome (Homo sapiens (Human))
Assay: Evaluation of NLRP3 inflammasome inhibitory activity (inhibition of IL-1β production in LPS/Nigericin-stimulated THP1-Null cells)
Settings: IL-1β production in THP1-Null cells, PMA, LPS 1 μg/mL, Nigericin 7.5 μmol/L, AlphaLISA
Numbers only; they are read as nM.

- compound: "Cc1cc(C2CC2)cc(C)c1-n1cc2c(=O)[nH]c(N3CCCC3)nc2n1 [Example 286]"
  unit label: "nM"
  result number: 4.2
- compound: "Cc1cc(C)cc(-n2cc3c(=O)[nH]c(N4CCCC4)nc3n2)c1 [Example 64]"
  unit label: "nM"
  result number: 290
- compound: "COc1cc(C)c(-n2cc3c(=O)[nH]c(N4CCOCC4)nc3n2)c(C)c1 [Example 253]"
  unit label: "nM"
  result number: 24
- compound: "Cc1cc(Br)ccc1-n1cc2c(=O)[nH]c(N3CC(F)(F)C3)nc2n1 [Example 76]"
  unit label: "nM"
  result number: 4.8

Per the records, this compound ( Cc1cccc(C)c1-n1cc2c(=O)[nH]c(N3CC(OCC(F)(F)F)C3)nc2n1 [Example 51] ) has IC50 equal to 2200

Noted for O=c1[nH]c(N2CCOCC2)nc2nn(-c3ccc(Cl)cc3C(F)(F)F)cc12 [Example 176] : its IC50 reads 27

---

Biological target: NLRP3 inflammasome (Homo sapiens (Human))
Test: Evaluation of NLRP3 inflammasome inhibitory activity (inhibition of IL-1β production in LPS/Nigericin-stimulated THP1-Null cells)
Conditions: IL-1β production in THP1-Null cells, PMA, LPS 1 μg/mL, Nigericin 7.5 μmol/L, AlphaLISA
pIC50: −log10 of the molar value.
Label condition met when pIC50 is at or above 7; otherwise label condition not met.

- compound: "Cc1cc(Br)ccc1-n1cc2c(OCC#N)nc(N3CCOCC3)nc2n1 [Example 156]"
  tested on: "NLRP3 inflammasome (Homo sapiens (Human))"
  assigned label: "condition not met"

Ask: In plain terms: is recorded pIC50 at least 7 for Cc1cc(Br)cc(C)c1-n1cc2c(=O)[nH]c(N(CCO)CCO)nc2n1 [Example 361] ?
Result: condition met

Ask: Does O=c1[nH]c(N2CC(F)C2)nc2nn(-c3ccc(C(F)(F)F)cc3Cl)cc12 [Example 181] have a reported pIC50 of at least 7?
Result: condition met

Ask: Could you please find out whether Cc1ccc(C(F)(F)F)cc1-n1cc2c(=O)[nH]c(N3CCCC3)nc2n1 [Example 6] has pIC50 that meets 7 or exceeds it?
Result: condition not met

Ask: Evaluate Cc1ccccc1-n1cc2c(=O)[nH]c(N(C)C)nc2n1 [Example 20] : pIC50 at minimum 7?
Result: condition not met

Ask: Form field: pIC50 at least 7? Entry: Cc1cc(C2CC2)cc(C)c1-n1cc2c(=O)[nH]c(N3C[C@@H]4C[C@H]3CO4)nc2n1 [Example 207]
Result: condition met

Ask: Is it the case that O=c1[nH]c(N2C[C@H]3C[C@@H]2CO3)nc2nn(-c3ccc(Br)cc3C(F)(F)F)cc12 [Example 259] has pIC50 reaching or exceeding 7?
Result: condition met

---

Target: NLRP3 inflammasome (Homo sapiens (Human), UniProt Q96P20)
Sequence (Q96P20 whole entry): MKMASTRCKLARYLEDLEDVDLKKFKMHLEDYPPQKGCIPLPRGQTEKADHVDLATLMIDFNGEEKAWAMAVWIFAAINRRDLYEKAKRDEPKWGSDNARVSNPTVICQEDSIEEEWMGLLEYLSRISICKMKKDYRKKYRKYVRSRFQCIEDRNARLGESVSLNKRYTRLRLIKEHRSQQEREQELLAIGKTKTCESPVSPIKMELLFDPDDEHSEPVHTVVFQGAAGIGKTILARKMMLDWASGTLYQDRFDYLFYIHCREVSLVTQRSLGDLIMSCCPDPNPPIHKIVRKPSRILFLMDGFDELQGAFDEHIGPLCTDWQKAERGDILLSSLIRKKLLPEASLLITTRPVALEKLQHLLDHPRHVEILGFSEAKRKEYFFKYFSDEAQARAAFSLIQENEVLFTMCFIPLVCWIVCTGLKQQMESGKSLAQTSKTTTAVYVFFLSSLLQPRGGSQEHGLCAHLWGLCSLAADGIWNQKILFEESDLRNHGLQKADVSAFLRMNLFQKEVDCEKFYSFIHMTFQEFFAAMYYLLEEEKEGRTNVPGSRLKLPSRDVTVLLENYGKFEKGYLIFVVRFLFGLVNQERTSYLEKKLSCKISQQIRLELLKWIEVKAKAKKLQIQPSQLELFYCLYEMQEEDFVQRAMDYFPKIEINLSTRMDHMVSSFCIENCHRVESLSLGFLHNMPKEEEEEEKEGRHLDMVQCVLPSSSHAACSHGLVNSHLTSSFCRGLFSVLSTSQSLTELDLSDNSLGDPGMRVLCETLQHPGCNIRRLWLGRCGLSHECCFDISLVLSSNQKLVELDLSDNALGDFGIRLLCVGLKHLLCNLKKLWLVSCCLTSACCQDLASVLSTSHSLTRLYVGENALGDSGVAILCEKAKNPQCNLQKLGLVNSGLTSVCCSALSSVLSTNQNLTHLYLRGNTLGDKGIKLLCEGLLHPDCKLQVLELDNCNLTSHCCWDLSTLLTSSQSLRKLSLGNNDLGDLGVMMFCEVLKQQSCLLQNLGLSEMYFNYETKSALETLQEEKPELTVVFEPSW
Assay: Evaluation of NLRP3 inflammasome inhibitory activity (inhibition of IL-1β production in LPS/Nigericin-stimulated THP1-Null cells)
Conditions: IL-1β production in THP1-Null cells, PMA, LPS 1 μg/mL, Nigericin 7.5 μmol/L, AlphaLISA
measurement kind: pIC50
Hey, just a heads up that pIC50 is the negative log base 10 of the concentration in molar.

Past entries and their recorded results:
- compound: "[2H]C([2H])([2H])Nc1nc2nn(-c3c(C)cc(C4CC4)cc3C)cc2c(=O)[nH]1 [Example 231]"
  measurement kind: "pIC50"
  result number: 8.11
- compound: "Cc1ccccc1-n1cc2c(=O)[nH]c(N3CCCCCC3)nc2n1 [Example 22]"
  measurement kind: "pIC50"
  result number: 5.09

Lab note: measured pIC50 of Cc1cc(C2CC2)cc(C)c1-n1cc2c(=O)[nH]c(N3CCOCC3)nc2n1 [Example 124] was 8.52

Measured pIC50, Cc1cc(Br)ccc1-n1cc2c(=O)[nH]c(N3CCN(S(C)(=O)=O)CC3)nc2n1 [Example 91] : 8.17

Entry Cc1cc(C2CC2)cc(Cl)c1-n1cc2c(=O)[nH]c(N3C[C@@H]4C[C@H]3CO4)nc2n1 [Example 288] , pIC50 reported as 8.00

Just so you know, measured pIC50 for Cc1cc(Br)ccc1-n1cc2c(=O)[nH]c(NCc3ccccc3)nc2n1 [Example 74] came out at 7.60

pIC50 in this record for Cc1cc(C2CC2)cc(Cl)c1-n1cc2c(=O)[nH]c(N3CC4CC(C3)O4)nc2n1 [Example 297] : 8.00

---

compounds and their reported IC50
Biological target: UniProt:Q96P20
Assay: Evaluation of NLRP3 inflammasome inhibitory activity (inhibition of IL-1β production in LPS/Nigericin-stimulated THP1-Null cells)
Conditions: IL-1β production in THP1-Null cells, PMA, LPS 1 μg/mL, Nigericin 7.5 μmol/L, AlphaLISA

- compound: "CCOC1CCN(c2nc3nn(-c4c(C)cccc4C)cc3c(=O)[nH]2)C1 (racemic) [Example 48]"
  result: "820 nM"
- compound: "Cc1cc(Br)cc(C)c1-n1cc2c(=O)[nH]c(N3CCCCCO3)nc2n1 [Example 338]"
  result: "25 nM"
- compound: "CCCNc1nc2nn(-c3ccccc3C)cc2c(=O)[nH]1 [Example 19]"
  result: "1400 nM"

UniProt:Q96P20 assay, compound Cc1cc(Br)ccc1-n1cc2c(OCCO)nc(N3CCOCC3)nc2n1 [Example 153] , recorded IC50 = 460 nM

Tested system UniProt:Q96P20; IC50 recorded for COc1nc(N2CCN(S(C)(=O)=O)CC2)nc2nn(-c3ccc(Br)cc3C)cc12 [Example 137] was 170 nM

Assay UniProt:Q96P20, sample Cc1ccccc1-n1cc2c(=O)n(C)c(N3CCCC3)nc2n1 [Example 14] , IC50 read: 7200 nM

Bench note, UniProt:Q96P20: Cc1cc(C)c(-n2cc3c(=O)[nH]c(N4CCC(O)CC4)nc3n2)c(C)c1 [Example 105] , IC50 reads 64 nM

Reported IC50 (UniProt:Q96P20) for entry Cc1ccc(-n2cc3c(=O)[nH]c(N4CC(F)(F)C(F)(F)C4)nc3n2)c(C)c1 [Example 85] is 24 nM

Query Cc1cc(C)c(-n2cc3c(=O)[nH]c(N4CCCC(O)C4)nc3n2)c(C)c1 (racemic) [Example 107] on UniProt:Q96P20; IC50 returned: 58 nM

The compound Cc1cc(C)c(-n2cc3c(=O)[nH]c(N4CCC(N(C)C)C4)nc3n2)c(C)c1 (racemic) [Example 113] , tested on UniProt:Q96P20, showed IC50 of 63 nM

Given the compound Cc1cc(Br)ccc1-n1cc2c(=O)[nH]c(N3CCOCC3)nc2n1 [Example 69] and test system UniProt:Q96P20, the measured IC50 is 24 nM

Entry Cc1cc(Br)cc(C)c1-n1cc2c(=O)[nH]c(N3CC4CCC(C3)O4)nc2n1 [Example 278] , tested on UniProt:Q96P20, has a reported IC50 of 7.9 nM

The compound Cc1cc(Br)cnc1-n1cc2c(=O)[nH]c(N3CCCC3)nc2n1 [Example 77] on UniProt:Q96P20: IC50 was 49 nM

The compound Cc1ccccc1-n1cc2c(=O)[nH]c(N3CCC3Cc3ccccc3)nc2n1 (racemic) [Example 38] on UniProt:Q96P20: IC50 was 2500 nM

Entry CCCN(C)c1nc2nn(-c3ccccc3C)cc2c(=O)[nH]1 [Example 18] , UniProt:Q96P20 data, IC50 value: 12000 nM

Lab note: compound Cc1cccc(C)c1-n1cc2c(=O)[nH]c(N3CCOCC3)nc2n1 [Example 233] tested on UniProt:Q96P20; recorded IC50 was 760 nM

Record Cc1ccccc1-n1cc2c(=O)[nH]c(Nc3ccccc3)nc2n1 [Example 24] / UniProt:Q96P20, IC50 recorded as 2400 nM

IC50 of CC(C)(C)OC(=O)N1CC2CN(c3nc4nn(-c5ccc(C(F)(F)F)cc5Cl)cc4c(=O)[nH]3)CC2C1 (stereo not shown) [Example 179] , assay on UniProt:Q96P20, is 27 nM

The measured IC50 that Cc1cc(C2CC2)cc(F)c1-n1cc2c(=O)[nH]c(N3CCOCC3)nc2n1 [Example 255] showed for UniProt:Q96P20 is 6.2 nM

From: patent US20240287079A1
